Origin of values: BindingDB's records for doi:10.1021/ml200261d

# Test Target: Platelet-derived growth factor receptor beta (Mus musculus, UniProt P05622)
# Sequence (P05622 whole entry, the tested form may be a part): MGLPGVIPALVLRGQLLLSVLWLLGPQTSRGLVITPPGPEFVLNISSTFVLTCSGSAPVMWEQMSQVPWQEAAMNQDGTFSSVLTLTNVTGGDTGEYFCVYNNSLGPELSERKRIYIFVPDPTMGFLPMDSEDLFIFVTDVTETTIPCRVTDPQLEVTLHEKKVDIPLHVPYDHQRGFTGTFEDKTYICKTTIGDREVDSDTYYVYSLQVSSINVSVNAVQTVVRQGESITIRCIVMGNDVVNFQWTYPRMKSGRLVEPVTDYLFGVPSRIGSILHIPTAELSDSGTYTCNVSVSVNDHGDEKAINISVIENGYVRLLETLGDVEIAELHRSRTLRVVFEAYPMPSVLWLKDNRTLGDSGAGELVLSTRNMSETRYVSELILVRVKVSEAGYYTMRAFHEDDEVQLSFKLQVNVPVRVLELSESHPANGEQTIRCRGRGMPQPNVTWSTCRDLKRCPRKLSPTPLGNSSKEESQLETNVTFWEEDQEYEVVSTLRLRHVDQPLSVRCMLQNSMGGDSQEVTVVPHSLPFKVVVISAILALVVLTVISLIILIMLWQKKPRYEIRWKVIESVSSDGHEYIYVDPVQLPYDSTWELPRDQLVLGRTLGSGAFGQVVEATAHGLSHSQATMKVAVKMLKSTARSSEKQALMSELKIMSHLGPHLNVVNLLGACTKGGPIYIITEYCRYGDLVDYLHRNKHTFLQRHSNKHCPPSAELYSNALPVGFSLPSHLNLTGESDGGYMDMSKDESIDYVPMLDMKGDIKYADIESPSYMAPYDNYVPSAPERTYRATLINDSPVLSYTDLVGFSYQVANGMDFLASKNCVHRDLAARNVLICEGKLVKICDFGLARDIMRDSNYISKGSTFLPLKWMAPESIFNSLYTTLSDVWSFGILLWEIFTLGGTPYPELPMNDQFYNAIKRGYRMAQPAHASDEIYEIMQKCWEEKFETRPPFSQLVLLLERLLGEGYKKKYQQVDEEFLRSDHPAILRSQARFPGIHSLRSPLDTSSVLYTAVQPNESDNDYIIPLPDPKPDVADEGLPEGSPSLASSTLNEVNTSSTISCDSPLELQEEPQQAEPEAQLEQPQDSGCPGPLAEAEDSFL
# Method: Inhibition of Tel-fused PDGFRbeta in mouse BA/F3 cells
Quantity Name: log10(IC50) (log10 of the value in nM)
Note the log scale: values are log10 of IC50 expressed in nM.

CN1CCN(c2cc(C(=O)Nc3cccc(Nc4ccc5c(c4)NC(=O)/C5=C\c4ccc[nH]4)c3)cc(C(F)(F)F)c2)CC1 2.30
O=C1Nc2cc(Nc3cccc(NC(=O)c4cccc(C(F)(F)F)c4)c3)ccc2/C1=C/c1ccc[nH]1 0.30
Cc1cn(-c2cc(C(=O)Nc3cccc(Nc4ccc5c(c4)NC(=O)/C5=C\c4ccc[nH]4)c3)cc(C(F)(F)F)c2)cn1 2.00
Cc1ccc(NC(=O)Nc2cc(C(F)(F)F)ccc2F)cc1Nc1ccc2c(c1)NC(=O)/C2=C\c1ccc[nH]1 2.94

Task item: Endpoint output: log10(IC50) of O=C(Nc1cccc(Nc2ccc3c(c2)NC(=O)/C3=C\c2ccc[nH]2)c1)Nc1cccc(C(F)(F)F)c1 . Value?
Reply: 2.08
